meta.source: patent US20220235118A1

Molecular target: T1, SARS-CoV-2 Spike RBD N439K (SARS-CoV-2, UniProt P0DTC2 319-541)
T1 construct: domain: RBD
Assay: HTRF, soluble RBD construct
QUANTITY: fold over background (fold over background)
// return numeric value only (unit: fold over background, not printed)

Prompt line: If you can, please state the reported fold over background value of PR194_00232 (antibody, V domains shown, also called IMM20190; PR194_00190) VH: EVQLVESGGGLVQPGGSLRLSCSASGFTVSSNYMSWVRQAPRKGLEWVSVIYAGGSTFYADSVKGRFTISRDNSKNTLLLQMNSLRAEDTAVYYCARDRGGYLDYWGQGTLVTVSS VL: DIQMTQSPSSLSASVGDRVTITCRASQGISNYLAWYQQKPGKVPKLLIYAASTLQSGVPSRFSGSGSGTDFTLTISSLQPEDVATYYCQKYNSAPGLTFGGGTKVEIK .
Response line: 5.95

Prompt line: If you can, please state the reported fold over background value of PR200_00622 (antibody, V domains shown, also called IMM20253; PR200_00253) VH: QVQLVESGGGVVQPGRSLRLSCTASGFTFSTYGMHWVRQAPGKGLEWVAVISYDGSSKHYAESVKGRFTISRDNSNNTLYLQMNRLRAEDTAVYYCARDGQPPGWGNYFDYWGQGTLVTVAS VL: SYVLTQPPSVSVAPGKTARITCGGNGIGSKSVYWYQQKPGQAPEVVVYDDSDRPSGIPERFSGSNSGNTATLTISRVEAGDEADYYCQVWDSSSDPWVFGGGTKLTVL .
Response line: 5.05

Prompt line: If you can, please state the reported fold over background value of PR194_00068 (antibody, V domains shown) VH: EVQLLESGGGLVQPGGSLRLSCSASGFTFTNYAMSWVRQAPGKGLEWVSTISGSGGSTYYADSVKGRFTISRDNSKSTLFLQMNSLRAEDTAIYYCANSGPTGDLDYWGQGTLVTVSS VL: SYELTQPPSVSVSPGQTTLSLTCSGDKLGNKYVCWYQQKPGQSPVLVIYQDTKRPSGIPERVSGSNSGDTATLTISGTQAMDEADYYCQAWDSSTAVFGGGTKLTVL .
Response line: 1.06

Prompt line: If you can, please state the reported fold over background value of PR194_00292 (antibody, V domains shown) VH: QVQLQQWGAGLLKPSETLSLTCAVYGGSLSGYYWSWIRQPPGKGLEWIGEINHSGSTNHNPSLKSRVSISVDTSKNQFSLKLSSVTAADTAVYYCARAWKYSSSWYSGGIYYGMDVWGQGTTVTVSS VL: QSALTQPASVSGSPGQSITISCSGTSSDVGSYNLVSWYQQHPGKAPKLMIYEGTKRPSGVSNRFSSSKSGNTASLTISGLQAEDEADYYCCSYAGFSTWVFGGGTKLTVL .
Response line: 1.06

Prompt line: If you can, please state the reported fold over background value of PR197_00647 (antibody, V domains shown) VH: QVQLVESGGGVVQPGRSLRLSCAASGFTFSSYAMHWVRQAPGKGLQWVTLISYDGGDKYYADSVRGRFTISRDNSKNTLYLQMNSLRTEDTAVYYCARDRPQTGDWFPPIPTGVLDVWGQGTTVTVSS VL: DIQMTQSPSSLSASVGDRVTITCRASQGISNYLAWFQQKPGKAPKSLIYAASSLQSGVPSRFSGSESGTDFTLTISSLQPEDFATYYCQQYHSYPITFGQGTRLEIK .
Response line: 1.04

Prompt line: If you can, please state the reported fold over background value of PR201_00151 (antibody, V domains shown) VH: RVTLRESGPALVKPTQTLTLTCTFSGFSLNTSGMCVSWIRQPPGKALEWLARIDWDDDKYYSTSLETRLTISKDTSKNQVVLTMTNLDPVDTGTYYCARISIQSRGGGADYWGQGTLVTVSS VL: DIQMTQSPSSLSASVGDRVTITCRASQSISSYLHWYQQKSGKAPKLLIFVASTLQSGVPSRFSGSGSGTDFTLTISSLQPEDSAAYYCQQSYSPPWTFGQGTKVEIK .
Response line: 6.03
